- Test method notes: In vitro ability to inhibit cholesterol biosynthesis in HepG2 cells in culture from [14C]mevalonate.
- Assay type: functional, cell-based
Entries and their IC50 values follow.
Measured property: IC50 (µM)

> print(dat)
                                chem.smiles  unit.of.measurement  censoring.operator  recorded.measurement
1  CCN(C/C=C/C#CC(C)(C)C)Cc1cccc(OC[Si](C)(C)c2ccc(SC)cc2)c1                   µM                   >                    10
2  CCN(C/C=C/C#CC(C)(C)C)Cc1cccc(OC[Si](C)(C)c2ccccc2C#N)c1                   µM                   =                  0.08
3  CCN(C/C=C/C#CC(C)(C)C)Cc1cccc(OC[Si](C)(C)Cc2ccccc2)c1                   µM                   >                    10
4  CCN(C/C=C/C#CC(C)(C)C)Cc1cccc(OC[Si](C)(C)c2ccc(C)cc2)c1                   µM                   =                     5
5  CCN(C/C=C/C#CC(C)(C)C)Cc1cccc(OC[Si](C)(C)c2cccc(C)c2)c1                   µM                   >                    10
6  CCN(CC#CC#CC(C)(C)C)Cc1cccc(OC[Si](C)(C)c2ccccc2C)c1                   µM                   =                  0.78
7  CCN(C/C=C/C#CC(C)(C)C)Cc1cccc(OC[Si](C)(C)CCc2ccccc2)c1                   µM                   >                    10
8  CCN(C/C=C/C#CC(C)(C)C)Cc1cccc(OC[Si](C)(C)c2ccc(Cl)cc2)c1                   µM                   >                    10
9  C=Cc1ccc([Si](C)(C)COc2cccc(CN(CC)C/C=C/C#CC(C)(C)C)c2)cc1                   µM                   =                  1.32

====

Entries and their pIC50 values follow.
- Test method notes: In vitro ability to inhibit cholesterol biosynthesis in HepG2 cells in culture from [14C]mevalonate.
- Assay type: functional, cell-based
pIC50: −log10 of the molar value.
Measured property: pIC50

> print(dat)
                                 chem.smiles  censoring.operator  recorded.measurement
 1  CCN(C/C=C/C#CC(C)(C)C)Cc1cccc(OC[Si](C)(C)c2ccccc2)c1                   =                  6.30
 2  CCN(C/C=C/C#CC(C)(C)C)Cc1cccc(OC[Si](C)(C)c2ccc(F)cc2)c1                   =                  5.30
 3  CCN(C/C=C/C#CC(C)(C)C)Cc1cccc(OC[Si](C)(C)c2ccc(S)cc2)c1                   =                  5.00
 4  CCN(C/C=C/C#CC(C)(C)C)Cc1cccc(OC[Si](C)(C)c2ccccc2C(F)(F)F)c1                   =                  5.83
 5  CCN(C/C=C/C#CC(C)(C)C)Cc1cccc(OC[Si](C)(C)c2ccccc2OC)c1                   =                  5.30
 6  CCN(C/C=C/C#CC(C)(C)C)Cc1cccc(OC[Si](C)(C)c2ccccc2C)c1                   =                  6.92
 7  CCN(C/C=C/C#CC(C)(C)C)Cc1cccc(OC[Si](C)(C)c2ccc(OC)cc2)c1                   <                  5.00
 8  CCN(C/C=C/C#CC(C)(C)C)Cc1cccc(OC[Si](C)(C)c2ccc(Br)cc2)c1                   <                  5.00
 9  CCN(C/C=C/C#CC(C)(C)C)Cc1cccc(OC[Si](C)(C)c2ccc(C(N)=O)cc2)c1                   =                  6.00
10  CCN(C/C=C/C#CC(C)(C)C)Cc1cccc(OC[Si](C)(C)c2ccc(C=O)cc2)c1                   =                  6.85
11  CCN(C/C=C/C#CC(C)(C)C)Cc1cccc(OC[Si](C)(C)c2ccc(C#N)cc2)c1                   =                  7.22
12  CCN(CC#CC#CC(C)(C)OC)Cc1cccc(OC[Si](C)(C)c2ccccc2C)c1                   =                  6.54
